List of log10(IC50) values.
- ASSAYED_TARGET: recombinant human DPP8 (Homo sapiens)
- Construct: purchased PBS Bioscience
- Sequence (Q6V1X1 whole entry): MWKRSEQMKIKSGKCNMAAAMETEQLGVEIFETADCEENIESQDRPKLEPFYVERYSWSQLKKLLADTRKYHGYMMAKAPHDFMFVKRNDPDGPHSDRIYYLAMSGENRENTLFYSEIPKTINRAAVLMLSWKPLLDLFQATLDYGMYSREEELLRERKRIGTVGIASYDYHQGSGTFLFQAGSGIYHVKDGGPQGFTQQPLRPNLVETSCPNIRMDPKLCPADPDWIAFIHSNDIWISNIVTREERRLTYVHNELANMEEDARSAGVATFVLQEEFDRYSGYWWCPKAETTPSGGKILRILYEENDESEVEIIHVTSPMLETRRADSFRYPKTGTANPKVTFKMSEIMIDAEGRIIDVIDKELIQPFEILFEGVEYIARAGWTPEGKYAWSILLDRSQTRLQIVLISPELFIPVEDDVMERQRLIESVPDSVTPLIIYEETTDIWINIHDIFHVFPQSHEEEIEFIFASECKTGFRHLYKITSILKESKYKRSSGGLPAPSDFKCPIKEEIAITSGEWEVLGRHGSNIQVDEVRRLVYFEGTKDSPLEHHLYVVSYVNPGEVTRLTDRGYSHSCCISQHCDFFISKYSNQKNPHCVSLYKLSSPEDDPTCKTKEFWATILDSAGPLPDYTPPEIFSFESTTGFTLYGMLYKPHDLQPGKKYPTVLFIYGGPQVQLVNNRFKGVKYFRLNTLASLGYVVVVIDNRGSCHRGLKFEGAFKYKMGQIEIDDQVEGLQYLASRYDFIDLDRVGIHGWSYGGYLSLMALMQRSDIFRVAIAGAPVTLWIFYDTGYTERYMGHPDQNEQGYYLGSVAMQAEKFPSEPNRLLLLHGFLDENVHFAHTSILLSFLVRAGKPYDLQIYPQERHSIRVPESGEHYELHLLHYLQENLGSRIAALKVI
- METHOD_DESCRIPTION: DPP8 inhibition, fluorogenic substrate Z-Ala-Pro-AMC
- Assay type: biochemical
- PROTOCOL_CONDITIONS: recombinant human DPP8
// do not treat as linear: log10 of IC50, unit µM

# MOLECULE, log10(IC50)
records = [
    ("N#C[C@@H]1C[C@H](F)CN1C(=O)CN1CCC(Oc2ccc3ccncc3c2)CC1 [Example 423]", 0.54),
    ("COc1cc(N[C@H]2CCN(CC(=O)N3C[C@@H](F)C[C@H]3C#N)C2)c2cccnc2c1 [Example 257]", 0.66),
    ("CNC(=O)c1ccc(N[C@H]2CCN(CC(=O)N3C[C@@H](F)C[C@H]3C#N)C2)c2cccnc12 [Example 281]", 0.65),
    ("N#C[C@@H]1C[C@H](F)CN1C(=O)CN1CC[C@H](Nc2cccc3ncc(F)cc23)C1 [Example 255]", 0.71),
    ("COc1cccc2c(OC3CCN(CC(=O)N4C[C@@H](F)C[C@H]4C#N)CC3)ccnc12 [Example 438]", 0.53),
]

# log10(IC50) lookup, item Cc1ccc2nccc(OC3CCN(CC(=O)N4C[C@@H](F)C[C@H]4C#N)CC3)c2c1 [Example 410]
1.03

Could you share which log10(IC50) value was measured for COc1ccc2nc(C(F)(F)F)cc(OC3CCN(CC(=O)N4C[C@@H](F)C[C@H]4C#N)CC3)c2c1 [Example 414] ?
1.64

Need log10(IC50) of COc1ccc(N[C@H]2CCN(CC(=O)N3C[C@@H](F)C[C@H]3C#N)C2)c2cccnc12 [Example 263] , thanks.
0.55

---

- ASSAYED_TARGET: Recombinant human FAP (Homo sapiens)
- Construct: purchased R&D systems
- Sequence (Q12884 1-760): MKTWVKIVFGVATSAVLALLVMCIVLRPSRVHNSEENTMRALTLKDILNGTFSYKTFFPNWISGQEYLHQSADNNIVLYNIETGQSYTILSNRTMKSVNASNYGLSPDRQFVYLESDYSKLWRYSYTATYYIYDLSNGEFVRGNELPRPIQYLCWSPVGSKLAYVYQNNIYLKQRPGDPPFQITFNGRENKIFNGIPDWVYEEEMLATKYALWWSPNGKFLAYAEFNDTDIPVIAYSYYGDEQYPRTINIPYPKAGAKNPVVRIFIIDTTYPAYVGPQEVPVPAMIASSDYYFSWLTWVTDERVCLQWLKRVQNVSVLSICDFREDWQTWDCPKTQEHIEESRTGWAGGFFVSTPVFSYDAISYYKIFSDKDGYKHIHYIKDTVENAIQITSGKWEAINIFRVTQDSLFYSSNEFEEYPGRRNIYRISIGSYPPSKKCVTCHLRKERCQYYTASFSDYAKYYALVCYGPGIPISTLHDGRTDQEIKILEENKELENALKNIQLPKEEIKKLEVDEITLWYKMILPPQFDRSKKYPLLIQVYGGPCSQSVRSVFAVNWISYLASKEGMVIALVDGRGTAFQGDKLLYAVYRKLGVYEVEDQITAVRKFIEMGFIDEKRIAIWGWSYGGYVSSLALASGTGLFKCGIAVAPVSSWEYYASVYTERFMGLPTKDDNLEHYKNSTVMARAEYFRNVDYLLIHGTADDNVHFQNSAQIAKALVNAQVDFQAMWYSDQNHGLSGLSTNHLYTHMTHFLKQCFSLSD
- METHOD_DESCRIPTION: FAP FRET assay, FGF21-sequence FRET peptide substrate
- Format: biochemical
- PROTOCOL_CONDITIONS: FRET peptide with human FGF21 sequence, 6 μM, 37° C.
RECORDED_ENDPOINT: pIC50
Convention used: pIC50 is expressed as -log10 of the molar concentration.

Guide cases for pIC50, answers given:
# COMPOUND_STRING, ASSAYED_TARGET, pIC50
measured = [
    ("Cc1cnc2cccc(N[C@@H]3CCN(CC(=O)N4C[C@@H](F)C[C@H]4C#N)C3)c2c1", "Recombinant human FAP (Homo sapiens)", 8.44),
    ("CCOc1ccc(N[C@H]2CCN(CC(=O)N3C[C@@H](F)C[C@H]3C#N)C2)c2cccnc12", "Recombinant human FAP (Homo sapiens)", 8.77),
    ("COc1ccc2ncc(N(C)C3CCN(CC(=O)N4C[C@@H](F)C[C@H]4C#N)CC3)cc2c1", "Recombinant human FAP (Homo sapiens)", 8.51),
]

// below: pIC50 requested for another compound
I'd like to know its pIC50. The compound in question is Cc1cnc2cccc(N[C@@H]3CCN(CC(=O)N4CCC[C@H]4C#N)C3)c2c1
8.77
